# Target: Calpain-2 catalytic subunit (Sus scrofa, UniProt P43367)
# Sequence (P43367 whole entry): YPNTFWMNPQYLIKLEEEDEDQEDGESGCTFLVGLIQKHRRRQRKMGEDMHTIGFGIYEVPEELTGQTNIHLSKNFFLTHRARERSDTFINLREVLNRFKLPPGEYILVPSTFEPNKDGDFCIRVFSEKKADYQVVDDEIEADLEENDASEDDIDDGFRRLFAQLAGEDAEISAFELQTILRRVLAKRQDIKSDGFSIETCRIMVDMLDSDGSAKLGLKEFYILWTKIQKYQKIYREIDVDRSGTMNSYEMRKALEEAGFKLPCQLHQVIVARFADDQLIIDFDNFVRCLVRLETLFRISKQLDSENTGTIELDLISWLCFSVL
# Test Summary: pig calpain II inhibitor potency, dose response, biochemical, fluorogenic peptide substrate (AID 1420)
# Format: functional
List of IC50 values.

Known IC50 results, listed for orientation:
[[record]]
molecule = "Fc1ccc(CSc2nc3ccccc3[nH]2)c2ccccc12"
measure = "IC50"
observed_measurement = "2.61 µM (not active)"

[[record]]
molecule = "Cc1ccccc1N=C(S)N(CCc1c(C)[nH]c2ccc(F)cc12)Cc1cccnc1"
measure = "IC50"
observed_measurement = "> 50 µM (not active)"

[[record]]
molecule = "CC(CCc1ccccc1)NC(=O)CSc1cccc[n+]1[O-] (stereo not given)"
measure = "IC50"
observed_measurement = "44.7 µM (not active)"

[[record]]
molecule = "O=C(NCCC1=CCCCC1)c1ccc2c(c1)N(Cc1ccccc1)C(=O)CS2"
measure = "IC50"
observed_measurement = "5.5 µM (not active)"

[[record]]
molecule = "CC1CN(Cc2c(O)ccc3c2oc(=O)c2ccccc23)CC(C)O1 (stereo not given)"
measure = "IC50"
observed_measurement = "3.06 µM (not active)"


// returns reported IC50 for input CCCCSc1nnc(-c2ccc(C)cc2)c2ccccc12
5.25 µM (not active)

What does the data say about its IC50? Entry: CCOC(=O)C(C)/C(C)=N\Nc1ccc([N+](=O)[O-])cc1[N+](=O)[O-] (stereo not given)
> 50 µM (not active)

For the molecule O=C1CC(C(=O)Nc2ccc(Cl)cc2)n2ncnc2N1 (stereo not given) , what IC50 is on record?
< 0.4 µM (not active)

Name the recorded IC50 for CSc1ccc(CN(C)CC(=O)Nc2c(F)cccc2F)cc1 .
2.25 µM (not active)

Quick one: IC50 of CCOC(=O)N1CCc2c(sc3c2c(=O)n(Cc2ccccc2)c(=O)n3CC(=O)NCCOC)C1 ?
7.05 µM (not active)

###

# Test Summary: Luminescence Cell-Based Dose Response HTS to Identify Activators of Luciferase Translation or Activity in H4 […] Cells. [Related pubchem assays: 1829 (Project Summary), 1814 (Primary HTS)]
# Assay type: functional
Activity calls are given as the source filed them.
Measure: EC50

[[record]]
molecule = "COc1ccc(C2C(C#N)=C(N)Nc3nc4ccccc4n32)cc1 (stereo unspecified)"
observed_measurement = "16.7 µM (active)"

[[record]]
molecule = "CC(C)=CCC/C(C)=C/CC(C)(C)CNCCN1CCNCC1"
observed_measurement = "> 120 µM (not active)"

[[record]]
molecule = "c1ccc2nc3c(nc2c1)OCC1CCCCN31 (stereo unspecified)"
observed_measurement = "0.193 µM (active)"

[[record]]
molecule = "Cc1cccc(-c2nsc(SCC(=O)N3CCCC3)n2)c1"
observed_measurement = "0.104 µM (active)"

[[record]]
molecule = "NC1=C(c2nc(-c3ccc(Cl)cc3)cs2)C(=O)CN1NC(=O)c1ccc(O)cc1"
observed_measurement = "9.72 µM (active)"


Note: attention shifts to another entry.
So what's the measured EC50 for this one? CCOc1nc(NCc2ccco2)nc(Nc2ccccc2F)n1
12.9 µM (active)

###

# System: Streptococcus
# Test Summary: Group A Streptococcus viability loss, dose response, counter-screen for streptokinase expression inhibitor project, luminescence, BacTiterGlo (AID 1915);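 note: potency for reduction of bacterial viability or growth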
# Format: functional, organism-based
Structures can show the parent of a compound that is named as a salt. Calls of active or inactive are those of the source.
Below, each entry is listed alongside its reported EC50.

[[record]]
molecule = "Fc1ccc(CSc2nc3ccccc3[nH]2)c2ccccc12"
target = "Streptococcus"
measure = "EC50"
observed_measurement = "13.9 µM (active)"


Give the measured EC50 of Cc1ccnn2c(-c3ccccc3)c3c(=O)n(C)c(=O)n(C)c3c12 .
> 150 µM (not active)

So what's the measured EC50 for this one? C=C[C@]1(C)C[C@@H](OC(=O)CSCCN(CC)CC)[C@]2(C)[C@H](C)CC[C@]3(CCC(=O)[C@H]32)[C@@H](C)[C@@H]1O [TIAMULIN FUMARATE]
< 0.06 µM (active)

Reported EC50 for Oc1cccc2ccc(/C=C/c3ccccc3Br)nc12 : what is it?
3.96 µM (active)

Tell me the measured EC50 of CN1C(=O)/C(=C\c2ccccc2F)Sc2ccc(C(=O)NC3CCN(Cc4ccccc4)CC3)cc21 , please.
41.8 µM (active)

Request the reported EC50 associated with Clc1ccc(C2=CSC3=Nc4cccc5cccc(c45)N23)cc1
17.1 µM (active)

Values compiled from ChEMBL document CHEMBL1201862.
